assay: NCI Yeast Anticancer Drug Screen. Data for the mlh1 rad18 strain (AID 175); details: S. cerevisiae mlh1 rad18 strain growth inhibition; at 50.0 µM
About 79,000 compounds went through this panel and 15% of them were active in at least one assay; those are over-represented in the sample as a whole. Active and inactive are the calls of the source. Cut-off read from the data, not from the text of the source: active = growth inhibition above about 70%; inactive = the rest.
Outcomes: active, inactive

{"columns": ["MOLECULE", "CLASS"],
 "data": [
  ["Cc1cc2c(cc1Cl)S(=O)(=O)OC(c1ccc([N+](=O)[O-])cc1)=N2", "inactive"],
  ["CCOC(=O)NC(OCCN(C)C)(C(F)(F)F)C(F)(F)F", "inactive"],
  ["COc1cccc2cc(C(=O)Nc3ccccc3)c(=N)oc12", "inactive"],
  ["CCC(C(=O)NC(C)c1ccc(-c2ccccc2)cc1)c1ccccc1 (centres undefined)", "inactive"],
  ["O=Cc1ccccc1CCn1c(=O)c2cc3c(=O)n(CCc4ccccc4C=O)c(=O)c3cc2c1=O", "inactive"],
  ["CCc1ccccc1NC(=O)NCC(C)C", "inactive"],
  ["CC(=O)N(C(C)=O)c1cc2c3ccccc3ccc2c2ccccc12", "inactive"],
  ["CCNC(=O)Nc1ccccn1", "inactive"],
  ["Nc1ccc2c(c1)C(=O)c1ccccc1C2=O", "inactive"],
  ["COC(=O)/C(=N/NC(N)=O)C(C(=O)OC)C(=O)C(=O)Nc1ccc(Cl)cc1 (centres undefined)", "inactive"],
  ["C[N+](C)(CC(=O)Nc1cc(C(F)(F)F)cc(C(F)(F)F)c1)CC(=O)Nc1ccc(Cl)c(C(F)(F)F)c1", "active"],
  ["CC1(C)OC2C3COc4nc5c(N)ncnc5n4C(O3)C2O1 (centres undefined)", "inactive"],
  ["CCCCCCCCCCCCCCC(=O)OCCN(C)C", "inactive"],
  ["CC(=O)OC1CCC2=C3CCC4(C)C(=O)CCC4C3C(O)C2(C)C1 (centres undefined)", "inactive"],
  ["CN(C)CCSc1nc2ccccc2o1", "inactive"],
  ["O=C1ON(c2ccccc2)C(c2ccc(OCc3ccccc3)cc2)N1c1ccccc1 (centres undefined)", "inactive"],
  ["CC(C)C1=CC2=C(C(=O)C1=O)C13CCCC(C)(C)C1CC2OC3=O (centres undefined)", "active"],
  ["COc1ccc2c(c1)OC(C)(C)C(c1ccccc1)=C2c1ccc2c(c1)NCCO2", "inactive"],
  ["CC(=O)Nc1cc(-c2ccccc2)cc(-c2ccccc2)c1", "inactive"],
  ["CN(C)c1ccc(N2C(=S)SC(=Nc3ccccc3)C2=Nc2ccccc2)cc1", "inactive"],
  ["Cc1cc2ncn(C3CCCO3)c2cc1C (centres undefined)", "inactive"],
  ["CN(C)Cc1cc(C=O)cc(CN(C)C)c1O", "inactive"],
  ["Cc1ccccc1NC(=O)NNc1ccccc1", "inactive"],
  ["Cc1ccc2cccc(OC(=O)Nc3cc(Cl)c(Cl)cc3Cl)c2n1", "inactive"]
]}

###

Each entry below carries its reported growth inhibition.
Assay: NCI Yeast Anticancer Drug Screen. Data for the bub3 strain (AID 167)
Conditions: S. cerevisiae bub3 mutant strain, at 50.0 µM, stronger effect = higher value
Description: Growth inhibition of yeast strains with defined genetic alterations is measured as a screen for potential anti-cancer activity. Selected strains with alterations in DNA damage repair or cell cycle control were exposed to compounds and growth inhibition was measured relative to vehicle treated controls. The strain used in this assay is bub3
Compounds without any hit were thinned out: in the full panel of roughly 79,000, 15% have a hit.
QUANTITY_MEASURED: growth inhibition (%)

{"columns": ["COMPOUND", "MEASURED"],
 "data": [
  ["O=C1C=CC(=O)N1C(c1ccccc1)(c1ccccc1)c1ccccc1", 99.5],
  ["O=C(O)c1ccc(C(=O)O)c(C(=O)O)c1.[NH-]C1CCCCC1[NH-].[Pd+2]", 3.95],
  ["C=C(C)/C=N/NS(=O)(=O)c1ccc(C)cc1", -18.1],
  ["C=CCOc1ccccc1C", -21.7],
  ["CCCCC1(CCS)C(=O)NC(=Nc2ccccc2)NC1=O (configuration not stated)", 22.7],
  ["CC(=O)Nc1ccc(C(=O)NN2C(=O)C(Cl)C2c2ccc([N+](=O)[O-])cc2)cc1 (configuration not stated)", -24.4],
  ["NCc1ccccc1[N+](=O)[O-]", 3.5],
  ["CN(C)c1c(F)c(F)c(N=Nc2ccccc2)c(F)c1F", 16.8],
  ["C/C(=N\\NC(=O)c1ccncc1)c1cccc(Br)c1", 5.35],
  ["Nc1c2c(nn1-c1ccccc1)C(=O)N(CCc1ccccc1)C2", -3.25],
  ["Cc1cc(-c2ccccc2)nc(Nc2nc3ccccc3o2)n1", -9.45],
  ["C/C(=N\\NC(=S)Nc1cccc2cccc(S(=O)(=O)O)c12)c1ccccn1", -7.4]
]}

###

test: NCI Yeast Anticancer Drug Screen. Data for the sgs1 mgt1 strain (AID 161);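 note: 0% = growth of cultures given vehicle only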; conditions: S. cerevisiae sgs1 mgt1 strain, at 50.0 µM
Compounds without any hit were thinned out: in the full panel of roughly 79,000, 15% have a hit. The source made the active and inactive calls. Cut-off read from the data, not from the text of the source: active = growth inhibition above about 70%; inactive = the rest.
Outcome codes: 1 (yes) for active, 0 (no) for inactive

{"columns": ["COMPOUND", "CLASS"],
 "data": [
  ["Cc1ccc2cccc(OC(=O)Nc3cc(Cl)c(Cl)cc3Cl)c2n1", "0 (no)"],
  ["NC(=S)n1nc(-c2ccccc2)c(N=Nc2cccc([N+](=O)[O-])c2)c1-c1ccccc1", "0 (no)"],
  ["CCOC(=O)C(CCSC)(CCSC)C(=O)OCC", "0 (no)"],
  ["CN(C)C(=S)Oc1cc(Cl)c(Cl)cc1Cl", "1 (yes)"],
  ["N[C@@H](CCC(=O)NC(Cc1ccccc1)C(=O)NCP(=O)(O)O)C(=O)O (some centres undefined)", "0 (no)"],
  ["CC(=O)OCC1OC(c2ccccc2)C/C(=N/O)C1OC(C)=O (centres undefined)", "1 (yes)"],
  ["COc1ccc(-c2oc3ccccc3c(=O)c2O)cc1OC", "0 (no)"],
  ["O=[N+]([O-])c1ccc(-c2noc(-c3ccccc3)c2C2=NCCN2)cc1", "0 (no)"],
  ["O=C(CCl)Nc1ccc(SSc2ccc(NC(=O)CCl)cc2)cc1", "0 (no)"],
  ["Cc1cc(C)c(C)c(CN)c1C", "0 (no)"],
  ["CN(/N=C/c1ccc(Cl)c(Cl)c1)C1=NCCCCN1", "0 (no)"],
  ["CCCCCC(=O)OCC(COC(=O)CCCCC)OC(=O)CCCCC", "0 (no)"],
  ["Cc1ccc(C(C)C)c(OCC2=NCCN2C)c1", "0 (no)"],
  ["C/C(N=NS(=O)(=O)c1ccccc1)=C1\\C=CC=CN1O", "0 (no)"],
  ["CC(C)CCC[C@@H](C)[C@H]1CC[C@H]2[C@@H]3CC[C@H]4CC5(C[C@]4(C)[C@H]3CC[C@]12C)Nc1ccccc1S5 (some centres undefined)", "0 (no)"],
  ["CC(C)CC1NC(=O)OC1=O (centres undefined)", "0 (no)"],
  ["CCOC(=O)C(Cc1ccccc1)NC(=O)c1[nH]cnc1/N=N/N(C)C (centres undefined)", "0 (no)"],
  ["COc1ccc(C2S/C(=C\\c3cccc(O)c3)C(=O)N2NC(=O)Cc2ccccc2)cc1 (centres undefined)", "0 (no)"],
  ["COC1=C(C(C2=C(OC)CC(C)(C)CC2=O)c2ccc3c(c2)OCO3)C(=O)CC(C)(C)C1", "0 (no)"],
  ["CN1CCOc2c1cnn(CCO)c2=O", "0 (no)"],
  ["C/C=C(/C)c1cccc(OCc2ccccc2)c1OCc1ccccc1", "0 (no)"],
  ["CCN(CC)CCCC(C)NC(=O)c1ccc2c(c1O)C(=O)c1ccccc1C2=O (centres undefined)", "0 (no)"],
  ["CCCC(C)C(=O)OC1CCCCC1C (centres undefined)", "0 (no)"],
  ["Cc1cc(Cc2cccc3ccccc23)nc2c1ccc1ccccc12", "0 (no)"]
]}

###

test: NCI Yeast Anticancer Drug Screen. Data for the sgs1 mgt1 strain (AID 161);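 note: 0% = growth of cultures given vehicle only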; conditions: S. cerevisiae sgs1 mgt1 strain, at 50.0 µM, stronger effect = higher value
The panel holds about 79,000 compounds, 15% with a hit somewhere; the sample as a whole holds those more often.

{"columns": ["MOLECULE", "growth inhibition [%]"],
 "data": [
  ["CCOC(=O)c1[nH]cnc1N", -2.55],
  ["C[N+]1(C)CCC(O)C(c2ccccc2)C1 (stereo not drawn)", -3.5],
  ["c1ccc(CCc2cccnc2)nc1", -21.6],
  ["CSc1cnn(-c2ccccc2)[n+]1[O-]", -7.15],
  ["CCCCC(CC)COS(=O)(=O)O (stereo not drawn)", -30.9],
  ["Cc1ccc(N=NC2Sc3nc4ccccc4n3C2=O)cc1 (stereo not drawn)", -0.7],
  ["COc1cccc2c1[C@H]1CO[C@H]3C4C[C@H](C(=O)O)C([C@@H](C2)N13)N4C (stereo partly drawn)", 8.35],
  ["O=C1c2ccccc2C(=O)N1/N=C/c1ccc([N+](=O)[O-])cc1", -16.3],
  ["O=C1CCCC/C1=C1/SC(=Nc2ccccc2)C(=Nc2ccccc2)N1c1ccccc1", 16.2],
  ["OCC(O)COc1cccc2cccnc12 (stereo not drawn)", 0.4],
  ["Nc1cc(F)cc(C(F)(F)F)c1F", -4.3],
  ["CCN(CC)CCNc1ccc2ncn3c4ccccc4c(=O)c1c23", -16.1],
  ["COc1ccc(/C=C\\c2cc(OC)c(OC)c(OC)c2)cc1OCC(=O)O", 13]
]}
